PDI values, listed per item
- EXPERIMENT_NOTES: Diameter and PDI from DLS measurements of mRNA nanoparticles with lipid amines
- Type: physicochemical
- CONDITION_CONTEXT: CFTR mRNA nanoparticle with lipid amine
Where a name gives a salt, the structure may show the parent alone.
// no unit, no text: just the number

The examples below pair each entry with its known result.
CC(C)CCC[C@@H](C)[C@H]1CC[C@H]2[C@@H]3CC=C4C[C@@H](OC(=O)N(CCCCCCCC(C)(C)N)CCC(C)(C)N)CC[C@]4(C)[C@H]3CC[C@]12C [SA152, dihydrochloride]
0.14
CC[C@H](CC[C@@H](C)[C@H]1CC[C@H]2[C@@H]3CC=C4C[C@@H](SSCCC(=O)N(CCCCCCCC(C)N)CCC(C)N)CC[C@]4(C)[C@H]3CC[C@]12C)C(C)C (some centres unmarked) [SA178, dihydrochloride]
0.26
CC[C@H](CC[C@@H](C)[C@H]1CC[C@H]2[C@@H]3CC=C4C[C@@H](OC(=O)CCC(=O)N(CCC(C)N)CCC(C)N)CC[C@]4(C)[C@H]3CC[C@]12C)C(C)C (some centres unmarked) [SA168, dihydrochloride]
0.15

Enquiry: Using the record for CC(C)CCC[C@@H](C)[C@H]1CC[C@H]2[C@@H]3CC=C4C[C@@H](SSCCC(=O)N(CCCC(C)(C)N)CCC(C)(C)N)CC[C@]4(C)[C@H]3CC[C@]12C [SA145, dihydrochloride] , report its PDI.
Return: 0.14

Enquiry: Now consider CC(C)CCC[C@@H](C)[C@H]1CC[C@H]2[C@@H]3CC=C4C[C@@H](SSCCC(=O)N(CCCCNCCC(C)N)CCC(C)N)CC[C@]4(C)[C@H]3CC[C@]12C (some centres unmarked) [SA171, trihydrochloride] .
Return: 0.11

Enquiry: Now consider CC[C@H](CC[C@@H](C)[C@H]1CC[C@H]2[C@@H]3CC=C4C[C@@H](OC(=O)N(CCCC(C)(C)N)CCC(C)(C)N)CC[C@]4(C)[C@H]3CC[C@]12C)C(C)C [SA149, dihydrochloride] .
Return: 0.14

Enquiry: Now consider CC(C)CCC[C@@H](C)[C@H]1CC[C@H]2[C@@H]3CC=C4C[C@@H](OC(=O)N(CCCN)CCCCCCN)CC[C@]4(C)[C@H]3CC[C@]12C [SA83, dihydrochloride] .
Return: 0.15

Enquiry: Now consider CC(C)CCC[C@@H](C)[C@H]1CC[C@H]2[C@@H]3CC=C4C[C@@H](OC(=O)N(CCCCNCCC(C)N)CCC(C)N)CC[C@]4(C)[C@H]3CC[C@]12C (some centres unmarked) [SA76, trihydrochloride] .
Return: 0.11

----------
- EXPERIMENT_NOTES: Encapsulation of mRNA nanoparticles with lipid amines using Ribogreen assay
- Format: physicochemical
- CONDITION_CONTEXT: Luciferase mRNA nanoparticle modified with lipid amine
Where a name gives a salt, the structure may show the parent alone.
METRIC_NAME: % Encapsulation (Ribogreen) (%)
Write down the numeric answer in % and omit the unit.

The examples below pair each entry with its known result.
CC[C@H](CC[C@@H](C)[C@H]1CC[C@H]2[C@@H]3CC=C4C[C@@H](SSCCC(=O)N(CCCCCCCC(C)N)CCC(C)N)CC[C@]4(C)[C@H]3CC[C@]12C)C(C)C (some centres unmarked) [SA178, dihydrochloride]
98.8
CC(C)CCC[C@@H](C)[C@H]1CC[C@H]2[C@@H]3CC=C4C[C@@H](SSCCC(=O)N(CCCCCCCC(C)(C)N)CCC(C)(C)N)CC[C@]4(C)[C@H]3CC[C@]12C.Cl.Cl [SA139]
99.4
CCC(N)(CC)CCNCCCCN(CCC(N)(CC)CC)C(=O)CCSS[C@H]1CC[C@@]2(C)C(=CC[C@H]3[C@@H]4CC[C@H]([C@H](C)CCCC(C)C)[C@@]4(C)CC[C@@H]32)C1 [SA184, trihydrochloride]
98.8
CC[C@H](CC[C@@H](C)[C@H]1CC[C@H]2[C@@H]3CC=C4C[C@@H](OC(=O)N(CCCCNCCC(N)(CC)CC)CCC(N)(CC)CC)CC[C@]4(C)[C@H]3CC[C@]12C)C(C)C [SA183, trihydrochloride]
99.6
CC(C)CCC[C@@H](C)[C@H]1CC[C@H]2[C@@H]3CC=C4C[C@@H](OC(=O)N(CCCN)CCCCOCCCN)CC[C@]4(C)[C@H]3CC[C@]12C [SA61, dihydrochloride]
99.1
CC(C)CCC[C@@H](C)[C@H]1CC[C@H]2[C@@H]3CC=C4C[C@@H](OC(=O)N(CCCCNCC(F)CN)CC(F)CN)CC[C@]4(C)[C@H]3CC[C@]12C (some centres unmarked) [SA87, trihydrochloride]
98.2

Enquiry: Using the record for CC[C@H](CC[C@@H](C)[C@H]1CC[C@H]2[C@@H]3CC=C4C[C@@H](OC(=O)CCCC(=O)N(CCCCCCCC(C)(C)N)CCC(C)(C)N)CC[C@]4(C)[C@H]3CC[C@]12C)C(C)C [SA155, dihydrochloride] , report its % Encapsulation (Ribogreen).
Return: 98.9

Enquiry: Now consider CC(C)CCC[C@@H](C)[C@H]1CC[C@H]2[C@@H]3CC=C4C[C@@H](OC(=O)[C@H](CCCCN)NCCCCCCN)CC[C@]4(C)[C@H]3CC[C@]12C.Cl.Cl.Cl [SA131] .
Return: 99.6

Enquiry: Now consider CC[C@H](CC[C@@H](C)[C@H]1CC[C@H]2[C@@H]3CC=C4C[C@@H](OC(=O)CCCC(=O)N(CCCCCCCC(C)N)CCC(C)N)CC[C@]4(C)[C@H]3CC[C@]12C)C(C)C (some centres unmarked) [SA154, dihydrochloride] .
Return: 99.6

Enquiry: Now consider CC[C@H](CC[C@@H](C)[C@H]1CC[C@H]2[C@@H]3CC=C4C[C@@H](OC(=O)CCCC(=O)N(CCCCNCCC(C)N)CCC(C)N)CC[C@]4(C)[C@H]3CC[C@]12C)C(C)C.Cl.Cl.Cl (some centres unmarked) [SA136] .
Return: 99.7

Enquiry: Now consider CC(C)CCC[C@@H](C)[C@H]1CC[C@H]2[C@@H]3CC=C4C[C@@H](OC(=O)CCCC(=O)N(CCCCCCCC(C)(C)N)CCC(C)(C)N)CC[C@]4(C)[C@H]3CC[C@]12C.Cl.Cl [SA141] .
Return: 98.9

Enquiry: Now consider CC(C)CCC[C@@H](C)[C@H]1CC[C@H]2[C@@H]3CC=C4C[C@@H](OC(=O)N(CCCCNCCC5(N)CC5)CCC5(N)CC5)CC[C@]4(C)[C@H]3CC[C@]12C [SA124, trihydrochloride] .
Return: 99.8

Enquiry: Now consider CC(C)CCC[C@@H](C)[C@H]1CC[C@H]2[C@@H]3CC=C4C[C@@H](SSCCC(=O)N(CCC(C)(C)N)CCC(C)(C)N)CC[C@]4(C)[C@H]3CC[C@]12C [SA174, dihydrochloride] .
Return: 99.5

Enquiry: Now consider CC[C@H](CC[C@@H](C)[C@H]1CC[C@H]2[C@@H]3CC=C4C[C@@H](OC(=O)N(CCCCNCCC(C)(C)N)CCC(C)(C)N)CC[C@]4(C)[C@H]3CC[C@]12C)C(C)C [SA114, trihydrochloride] .
Return: 99.7

Enquiry: Now consider CC(C)CCC[C@@H](C)[C@H]1CC[C@H]2[C@@H]3CC=C4C[C@@H](OC(=O)N(CCCCNCC(O)CN)CC(O)CN)CC[C@]4(C)[C@H]3CC[C@]12C (some centres unmarked) [SA88, trihydrochloride] .
Return: 99.8

Enquiry: Now consider CC(C)CCC[C@@H](C)[C@H]1CC[C@H]2[C@@H]3CC=C4C[C@@H](SSCCCCC(=O)N(CCCN)CCCCCCCCN)CC[C@]4(C)[C@H]3CC[C@]12C [SA110, dihydrochloride] .
Return: 98.8

Enquiry: Now consider CC[C@H](CC[C@@H](C)[C@H]1CC[C@H]2[C@@H]3CC=C4C[C@@H](OC(=O)N(CCCCNCC(F)(F)CN)CC(F)(F)CN)CC[C@]4(C)[C@H]3CC[C@]12C)C(C)C [SA116, trihydrochloride] .
Return: 97.6
